Every entry's value here was drawn from ChEMBL document CHEMBL1201862.

System: HCT-15 | Read-out: GI50

Can you share its GI50? I mean this compound: O=C(c1ccccc1)N1CCC(Nc2nccs2)O1 (stereo not drawn)
> 10 µM

Would you kindly repeat that for CCOC(=O)C(=O)Nc1nc2ccc(OC)cc2s1 ?
> 100 µM

Would you kindly repeat that for C[C@@H](CC(=O)OCc1ccccc1)OC1OC(COC(=O)C(C)(C)C)C(OC(=O)C(C)(C)C)C(OC(=O)C(C)(C)C)C1OC(=O)C(C)(C)C (stereo partly drawn) ?
> 100 µM

* * *

Tested on: 786-0
measurement description: NCI tumour cell line growth inhibition, 48 h
Calls of active or inactive are those of the source. Rule as the data show it: active = GI50 up to about 1.1 µM and inactive = higher.
readout type: GI50

Can you share its GI50? I mean this molecule: CN(CCC(=O)N1CC(CCl)c2ccc([N+](=O)[O-])cc21)CCC(=O)N1CC(CCl)c2ccc([N+](=O)[O-])cc21 (stereo unspecified)
10.9 µM (inactive)

Would you kindly repeat that for O=C(Nc1ccccc1)OCCN=C1c2ccccc2CCc2ccccc21 ?
32.6 µM (inactive)

Would you kindly repeat that for CC(C)=CC(=O)O[C@@H]1CC(C)(C)CC2C3=CCC4[C@]56CC[C@](O)(OC5)C(C)(C)C6CC[C@@]4(C)C3(C)CC[C@]21C(=O)O (stereo partly specified) ?
69.8 µM (inactive)

Would you kindly repeat that for COc1cccc(NC(=O)CC(=O)N2N=C(N(CCC#N)c3ccc(Cl)cc3)CC2c2ccccc2)c1 (stereo unspecified) ?
> 100 µM (inactive)

Would you kindly repeat that for Fc1ccc2c3c([nH]c2c1)CCNC3 ?
> 100 µM (inactive)

Would you kindly repeat that for CC(C)(C)C1=CC(O)(c2c3ccccc3c(C3(O)C=C(C(C)(C)C)C(=O)C(C(C)(C)C)=C3)c3ccccc23)C=C(C(C)(C)C)C1=O ?
> 100 µM (inactive)

* * *

Test system: NCI/ADR-RES
measurement description: NCI tumour cell line growth inhibition, 48 h
Active and inactive are the calls of the source. Rule as the data show it: active = GI50 up to about 1.1 µM and inactive = higher.
Field: GI50. Provide a value for each of the compounds that follow.

Can you share its GI50? I mean this compound: CCCCn1c2c(n(CCCC)c1=S)-c1c(n(CCCC)c(=S)n1CCCC)SSSS2
15 µM (inactive)

Would you kindly repeat that for O=C(c1ccccc1)c1ccc2nc3n(c2c1)C(c1c(F)cccc1F)SC3 (centres undefined) ?
2.99 µM (inactive)

Would you kindly repeat that for CN1C[C@H]2[C@@H](C1=O)[C@H](c1ccccc1)ON2C ?
> 100 µM (inactive)

Would you kindly repeat that for CC(=O)Oc1ccn2nc(C)c(Br)c2c1 ?
> 100 µM (inactive)

* * *

Field: GI50. Provide a value for each of the compounds that follow.
System: OVCAR-4
measurement description: NCI tumour cell line growth inhibition, 48 h
The source made the active and inactive calls. Cut-off read from the data, not from the text of the source: active = GI50 up to about 1.1 µM and inactive = higher.

Can you share its GI50? I mean this compound: COC(=O)C(CC=O)C(=O)C(=O)Nc1cccc(C(F)(F)F)c1 (centres undefined)
> 100 µM (inactive)

Would you kindly repeat that for Cn1c(CCC#N)nc2ccc(Br)cc2c1=O ?
> 100 µM (inactive)

Would you kindly repeat that for O=c1n(CCCCn2c(=O)n(CC3CS3)c3ccccc32)c2ccccc2n1CC1CS1 (centres undefined) ?
15.5 µM (inactive)

Would you kindly repeat that for CC(C)OP(=O)(OC(C)C)/C(Cl)=N/Nc1ccc([N+](=O)[O-])cc1 ?
> 100 µM (inactive)

Would you kindly repeat that for O=C(O)CCSC(=O)Nc1ccccc1 ?
> 100 µM (inactive)

Would you kindly repeat that for c1ccc(CC(Nc2cccnc2)c2ccccc2)cc1 (centres undefined) ?
25.7 µM (inactive)

Would you kindly repeat that for CC1=CP(=O)(c2ccccc2)C=C(C)C1=C(Cl)Cl (centres undefined) ?
12.9 µM (inactive)

Would you kindly repeat that for CC1CN1c1c(C(=O)/C=C/c2ccccc2)c(-c2ccccc2)nn(C)c1=O (centres undefined) ?
16.2 µM (inactive)

Would you kindly repeat that for CCCCCCCC/C=C\CCCCCCCCNc1ccn(C2OC(COP(=O)(O)OC3CC(n4cc(F)c(=O)[nH]c4=O)OC3CO)C(O)C2O)c(=O)n1 (centres undefined) ?
> 91.8 µM (inactive)

Would you kindly repeat that for COC(=O)c1c(OC)cccc1C(=O)O ?
> 100 µM (inactive)

Would you kindly repeat that for CC1=C2C(=C[C@H]3[C@]4(C)CCCC(C)(C)[C@H]4CC[C@]34O[C@H]24)OC1=O ?
> 100 µM (inactive)

Would you kindly repeat that for c1ccc(C2=NN(c3nc4ccccc4s3)C3(CCCCC3)N2)nc1 ?
24.8 µM (inactive)

Would you kindly repeat that for COc1ccc2oc(-c3cc4cc(OC)ccc4o3)cc2c1 ?
> 100 µM (inactive)

Would you kindly repeat that for CC(C)OC(=O)c1ccc(CCC2=CC(=O)C=CC2=O)cc1 ?
14.8 µM (inactive)

Would you kindly repeat that for Cc1ccc(N2C(=O)CC(=O)N(NC(=O)C(C)Oc3ccccc3C)C2=S)cc1 (centres undefined) ?
> 100 µM (inactive)

Would you kindly repeat that for Cc1cc(C(=O)N2CCN(Cc3ccccc3)CC2)c(C)o1 ?
> 100 µM (inactive)

Would you kindly repeat that for O=C(CCCCCCCCC(=O)NN1C(=O)/C(=C\c2ccc(O)c(O)c2)SC1c1c(O)ccc2ccccc12)NN1C(=O)C(=Cc2ccc(O)c(O)c2)SC1c1c(O)ccc2ccccc12 (centres undefined) ?
5.16 µM (inactive)

Would you kindly repeat that for Cc1cc(Cl)ccc1N1C(=O)C(=O)C(c2nc3ccccc3o2)C(=O)C1=O ?
> 100 µM (inactive)

Would you kindly repeat that for O=C1CCNC/C1=C\c1ccccc1 ?
15.9 µM (inactive)

Would you kindly repeat that for Cc1ccc(Cl)c(NC(=O)C(=O)C(C(=O)c2ccncc2)C2OC(=O)c3ccccc32)c1 (centres undefined) ?
> 100 µM (inactive)

Would you kindly repeat that for CC(=O)OC1COC(N2C(=O)C(=O)c3cc(Br)c([N+](=O)[O-])cc32)C(OC(C)=O)C1OC(C)=O (centres undefined) ?
42.6 µM (inactive)

Would you kindly repeat that for c1cnc(N2CCN(Cc3c[nH]c4ccccc34)CC2)nc1 ?
52 µM (inactive)

Would you kindly repeat that for Cc1cccc(C)c1NC(=O)C(=O)C1C(=O)NC(=O)NC1=O ?
> 100 µM (inactive)

Would you kindly repeat that for COc1cccc(/C=N/NC(=O)CSCC(=O)N/N=C/c2cccc(OC)c2OC)c1OC ?
> 100 µM (inactive)

* * *

System: ACHN
measurement description: NCI tumour cell line growth inhibition, 48 h
Activity calls are given as the source filed them. Cut-off read from the data, not from the text of the source: active = GI50 up to about 1.1 µM and inactive = higher.
Field: GI50. Provide a value for each of the molecules that follow.

Can you share its GI50? I mean this molecule: COC(=O)N/N=C(/Cc1occc(=O)c1O)C(=O)Nc1ccc([N+](=O)[O-])cc1[N+](=O)[O-]
> 100 µM (inactive)

Would you kindly repeat that for CC(=O)OC1COC(n2nc(/C=C/c3ccc(Cl)cc3)c(=O)n(/N=C/c3ccccc3)c2=S)C(OC(C)=O)C1OC(C)=O (configuration not stated) ?
> 100 µM (inactive)

Would you kindly repeat that for COc1c(Cl)cc(S(=O)O)cc1Cl ?
> 100 µM (inactive)

Would you kindly repeat that for CC(=O)Oc1ccn2nc(C)c(Br)c2c1 ?
> 100 µM (inactive)

Would you kindly repeat that for O=C(COc1ccc(OCC(=O)N2C(=O)CC(=O)N(c3ccc(Cl)cc3)C2=S)cc1)N1C(=O)CC(=O)N(c2ccc(Cl)cc2)C1=S ?
27.4 µM (inactive)

Would you kindly repeat that for Cc1nnc2sc(N/N=C/c3ccccc3)nn12 ?
> 100 µM (inactive)

Would you kindly repeat that for O=c1n(CCCCn2c(=O)n(CC3CS3)c3ccccc32)c2ccccc2n1CC1CS1 (configuration not stated) ?
25.1 µM (inactive)

* * *

Test system: OVCAR-4
measurement description: NCI tumour cell line growth inhibition, 48 h
Active and inactive are the calls of the source. No stated cut-off is given here; in the data, active = GI50 up to about 1.1 µM and inactive = higher.
Parameter call: string, one of True = active, False = inactive

Could you check what this test reported for O=C1CCCCC/C1=C\c1ccccc1 ?
False

Would you kindly repeat that for COc1cc2c(cc1OC)C1c3ccccc3CCN1CC2 (centres undefined) ?
False

Would you kindly repeat that for O=C(Nc1ccccc1)OCCN=C1c2ccccc2CCc2ccccc21 ?
False

Would you kindly repeat that for N#Cc1cc2c(n(C3OC(CO)C(O)C(O)C3O)c1=S)CCCCCC2 (centres undefined) ?
False

Would you kindly repeat that for N#CC1C(=O)Nc2sc(C(=O)c3ccc(Br)cc3)c(N)c2C12CCCCC2 (centres undefined) ?
False

Would you kindly repeat that for CCCC(=O)OC[n+]1ccc2c(C)c3[nH]c4ccc(OC)cc4c3c(C)c2c1 ?
True

Would you kindly repeat that for Cc1ccc([S+]([O-])(=Nc2ccccc2)C(C(C)C)C(C)(C)Cl)cc1 (centres undefined) ?
False

Would you kindly repeat that for Cc1nnc2sc(N/N=C/c3ccccc3)nn12 ?
False

Would you kindly repeat that for COC(=O)c1c(C)cccc1/C=C1\Cc2ccc(C)c(C)c2C1=O ?
False

Would you kindly repeat that for CCOc1ccc2c(c1)c(=O)c1c(NCCN(CC)CC)ccc3nnn2c31 ?
False

Would you kindly repeat that for Cn1c(=O)c2c(no[n+]2[O-])c2ccccc21 ?
False

Would you kindly repeat that for CC(=O)Oc1ccn2nc(C)c(Br)c2c1 ?
False

Would you kindly repeat that for OCC(O)C(O)C(O)c1nn(-c2ccc(Cl)cc2)c2nc3cc(Cl)c(Cl)cc3nc12 (centres undefined) ?
False

Would you kindly repeat that for COc1cc(/C=C(\C#N)C(=O)c2ccccc2)cc(OC)c1OC ?
False

Would you kindly repeat that for NC(CCC(=O)NC(CSC(=O)N(O)c1ccc(Br)cc1)C(=O)NCC(=O)O)C(=O)O (centres undefined) ?
False

Would you kindly repeat that for COc1cc(C(C)c2cc3c(cc2OCCO)OCO3)cc(OC)c1OC (centres undefined) ?
False

Would you kindly repeat that for COc1ccc(N2C(=O)C3c4[nH]c5ccc(OCc6ccccc6)cc5c4C4CCC(C(C)(C)C)CC4C3C2=O)cc1 (centres undefined) ?
False

Would you kindly repeat that for NN/C(=N\S(=O)(=O)c1cc(S(=O)(=O)c2ccccc2)cs1)Nc1ccc(Cl)cc1 ?
False

Would you kindly repeat that for COC(=O)c1sc2nc(Nc3ccccc3)/c(=N\c3ccccc3)sc2c1C ?
False

Would you kindly repeat that for C[C@H]1NC(=O)C2CCCCN2C(=O)CN(C)C(=O)CNC(=O)C2CCCCN2C(=O)[C@@H](NC(=O)c2nc3ccccc3cc2O)[C@@H](C)NC(=O)C2CCCCN2C(=O)CN(C)C(=O)CNC(=O)[C@@H]2CCCCN2C(=O)C1NC(=O)c1nc2ccccc2cc1O (some centres undefined) ?
True

Would you kindly repeat that for CC(=O)Nc1ccc(C(=O)NN2C(=O)CSC2c2ccc([N+](=O)[O-])cc2)cc1 (centres undefined) ?
False

Would you kindly repeat that for O=C(O)CCCCCCCCC(=O)O [SEBACIC ACID] ?
False

Would you kindly repeat that for CN(CCO)CCC1COc2ccccc2O1 (centres undefined) ?
False

Would you kindly repeat that for CC(C)=CC(=O)O[C@@H]1CC(C)(C)CC2C3=CCC4[C@]56CC[C@](O)(OC5)C(C)(C)C6CC[C@@]4(C)C3(C)CC[C@]21C(=O)O (some centres undefined) ?
False
